Assay: Inhibition of ATG-Myc (unknown origin) expressed in CEF cells assessed as inhibition of microtumor formation
pIC50: −log10 of the molar value.
Criterion: pIC50 meeting or surpassing 5. Met: yes (1). Not met: no (0).

Some entries whose results are on file:
* NC(=O)c1ccc(-c2cc(-c3ccc(-c4cnco4)cc3)nc(-c3ccco3)c2)cc1 | yes (1)
* N#Cc1ccc(-c2cc(-c3ccc(C(N)=O)cc3)cc(-c3ccco3)n2)cc1 | yes (1)
* N#Cc1ccc(-c2cc(-c3ccc(C(N)=O)cc3)nc(-c3ccco3)n2)cc1 | yes (1)
* N#Cc1ccc(-c2cc(-c3ccc(C(N)=O)cc3)cc(-c3cncs3)n2)cc1 | no (0)
* COc1ccc(-c2cc(-c3ccc(C(N)=O)cc3)nc(-c3ccccc3)n2)cc1 | no (0)
* N#Cc1ccc(-c2cc(-c3ccc(C(N)=O)cc3)cc(-c3cnco3)n2)cc1 | yes (1)

# input Tell me whether pIC50 is at least 5 here: Cn1ccnc1-c1cc(-c2ccc(C(N)=O)cc2)cc(-c2ccc(C#N)cc2)n1
# output no (0)

# input Answer whether pIC50 of NC(=O)c1ccc(-c2cc(-c3ccc(-c4nccs4)cc3)nc(-c3ccco3)c2)cc1 is greater than or equal to 5.
# output yes (1)

# input In plain terms: is recorded pIC50 at least 5 for N#Cc1ccc(-c2cc(-c3ccc(C(N)=O)cc3)nc(-c3cc[n+]([O-])cc3)n2)cc1 ?
# output no (0)

====

Property: IC50; scope: individual molecules
Assay: Inhibition of ATG-Myc (unknown origin) expressed in CEF cells assessed as inhibition of microtumor formation

Example entries begin here.
* c1coc(-c2cc(-c3nccs3)cc(-c3ccc(-c4nccs4)cc3)n2)c1 | > 100 µM
* Cn1nncc1-c1cc(-c2ccc(C(N)=O)cc2)cc(-c2ccc(C#N)cc2)n1 | 40 µM

Next item in the queue.
Just so you know, measured IC50 for N#Cc1ccc(-c2cc(-c3ccc(-c4nnn[nH]4)cc3)cc(-c3ccco3)n2)cc1 came out at 2 µM

====

Assay: Inhibition of ATG-Myc (unknown origin) expressed in CEF cells assessed as inhibition of microtumor formation
measured-metric: IC50

* N#Cc1ccc(-c2cc(-c3ccc(C(=O)NN)cc3)cc(-c3ccco3)n2)cc1 | > 100 µM
* CS(=O)(=O)NC(=O)c1ccc(-c2cc(-c3ccc(C#N)cc3)nc(-c3ccco3)c2)cc1 | 10 µM

Documented IC50 of N#Cc1ccc(-c2cc(-c3ccc(C(N)=O)cc3)cc(-c3cccc(F)c3)n2)cc1 : > 100 µM
